The values you see were collected from patent US9149536B2.

Quick reference for MIC B. subtilis ATCC 6633 among some compounds
system: B. subtilis ATCC 6633; assay: MIC, double-microdilution, B. subtilis ATCC 6633; format: cell-based; conditions: Table 4
metric: MIC B. subtilis ATCC 6633 (µg/mL)

1. NCC1OC(OC2C(COCc3cn(CCN4CCN(c5cc6c(cc5F)c(=O)c(C(=O)O)cn6C5CC5)CC4)nn3)OC(OC3C(O)C(N)CC(N)C3OC3OC(CN)C(O)C(O)C3N)C2O)C(N)C(O)C1O (stereo not drawn) :: 0.75
2. NCC1OC(OC2C(C(=O)Nc3ccc(-c4cn(CC(O)CN5CCN(c6cc7c(cc6F)c(=O)c(C(=O)O)cn7C6CC6)CC5)nn4)cc3)OC(OC3C(O)C(N)CC(N)C3OC3OC(CN)C(O)C(O)C3N)C2O)C(N)C(O)C1O (stereo not drawn) :: 6
3. NCC1OC(OC2C(C(=O)NCc3cn(CCOCCN4CCN(c5cc6c(cc5F)c(=O)c(C(=O)O)cn6C5CC5)CC4)nn3)OC(OC3C(O)C(N)CC(N)C3OC3OC(CN)C(O)C(O)C3N)C2O)C(N)C(O)C1O (stereo not drawn) :: 12

====

test system: E. coli AG100B; assay: MIC, double-microdilution, E. coli AG100B; format: cell-based, Escherichia coli; details: Table 4; kanamycin resistant, APH(3′)-I
metric: MIC E. coli AG100B

1) NCC1OC(OC2C(COCc3cn(CCN4CCN(c5cc6c(cc5F)c(=O)c(C(=O)O)cn6C5CC5)CC4)nn3)OC(OC3C(O)C(N)CC(N)C3OC3OC(CN)C(O)C(O)C3N)C2O)C(N)C(O)C1O (centres unmarked) [Compound 1q] :: 12 µg/mL
2) NCC1OC(OC2C(C(=O)NCc3cn(CCCCCN4CCN(c5cc6c(cc5F)c(=O)c(C(=O)O)cn6C5CC5)CC4)nn3)OC(OC3C(O)C(N)CC(N)C3OC3OC(CN)C(O)C(O)C3N)C2O)C(N)C(O)C1O (centres unmarked) [Compound 1l] :: 24 µg/mL
3) NCC1OC(OC2C(C(=O)NCc3cn(Cc4cccc(CN5CCN(c6cc7c(cc6F)c(=O)c(C(=O)O)cn7C6CC6)CC5)c4)nn3)OC(OC3C(O)C(N)CC(N)C3OC3OC(CN)C(O)C(O)C3N)C2O)C(N)C(O)C1O (centres unmarked) [Compound 1o] :: 12 µg/mL
4) NCC1OC(OC2C(C(=O)Nc3ccc(-c4cn(CCCCCCN5CCN(c6cc7c(cc6F)c(=O)c(C(=O)O)cn7C6CC6)CC5)nn4)cc3)OC(OC3C(O)C(N)CC(N)C3OC3OC(CN)C(O)C(O)C3N)C2O)C(N)C(O)C1O (centres unmarked) [Compound 1e] :: 12 µg/mL
5) NCC1OC(OC2C(C(=O)Nc3ccc(-c4cn(CCN5CCN(c6cc7c(cc6F)c(=O)c(C(=O)O)cn7C6CC6)CC5)nn4)cc3)OC(OC3C(O)C(N)CC(N)C3OC3OC(CN)C(O)C(O)C3N)C2O)C(N)C(O)C1O (centres unmarked) [Compound 1a] :: 24 µg/mL

====

Quick reference for MIC ratio XL1 blue/pSF815 to XL1 blue among some molecules
system: E. coli XL1 blue/pSF815; assay: microbe, parasite or virus in culture; format: cell-based; conditions: MIC resistant strain divided by MIC background strain
metric: MIC ratio XL1 blue/pSF815 to XL1 blue

1) NCC1OC(OC2C(C(=O)NCc3cn(Cc4ccc(CN5CCN(c6cc7c(cc6F)c(=O)c(C(=O)O)cn7C6CC6)CC5)cc4)nn3)OC(OC3C(O)C(N)CC(N)C3OC3OC(CN)C(O)C(O)C3N)C2O)C(N)C(O)C1O (stereo not shown) :: 1
2) NCC1OC(OC2C(C(=O)NCc3cn(CC(O)CN4CCN(c5cc6c(cc5F)c(=O)c(C(=O)O)cn6C5CC5)CC4)nn3)OC(OC3C(O)C(N)CC(N)C3OC3OC(CN)C(O)C(O)C3N)C2O)C(N)C(O)C1O (stereo not shown) :: 8
3) NCC1OC(OC2C(COCc3cn(CCN4CCN(c5cc6c(cc5F)c(=O)c(C(=O)O)cn6C5CC5)CC4)nn3)OC(OC3C(O)C(N)CC(N)C3OC3OC(CN)C(O)C(O)C3N)C2O)C(N)C(O)C1O (stereo not shown) :: 4
4) NCC1OC(OC2C(C(=O)NCc3cn(Cc4cccc(CN5CCN(c6cc7c(cc6F)c(=O)c(C(=O)O)cn7C6CC6)CC5)c4)nn3)OC(OC3C(O)C(N)CC(N)C3OC3OC(CN)C(O)C(O)C3N)C2O)C(N)C(O)C1O (stereo not shown) :: 4

====

system: E. coli AG100A; experiment: MIC, double-microdilution, E. coli AG100A; format: cell-based, Escherichia coli; details: Table 4; kanamycin resistant, APH(3′)-I
metric: MIC E. coli AG100A (µg/mL)

1) NCC1OC(OC2C(C(=O)Nc3ccc(-c4cn(CCCN5CCN(c6cc7c(cc6F)c(=O)c(C(=O)O)cn7C6CC6)CC5)nn4)cc3)OC(OC3C(O)C(N)CC(N)C3OC3OC(CN)C(O)C(O)C3N)C2O)C(N)C(O)C1O (stereo not drawn) [Compound 1b] :: 1.5
2) NCC1OC(OC2C(C(=O)Nc3ccc(-c4cn(CCCCN5CCN(c6cc7c(cc6F)c(=O)c(C(=O)O)cn7C6CC6)CC5)nn4)cc3)OC(OC3C(O)C(N)CC(N)C3OC3OC(CN)C(O)C(O)C3N)C2O)C(N)C(O)C1O (stereo not drawn) [Compound 1c] :: 1.5
3) NCC1OC(OC2C(C(=O)Nc3ccc(-c4cn(CCOCCN5CCN(c6cc7c(cc6F)c(=O)c(C(=O)O)cn7C6CC6)CC5)nn4)cc3)OC(OC3C(O)C(N)CC(N)C3OC3OC(CN)C(O)C(O)C3N)C2O)C(N)C(O)C1O (stereo not drawn) [Compound 1g] :: 1.5
4) NCC1OC(OC2C(C(=O)NCc3cn(CC(O)CN4CCN(c5cc6c(cc5F)c(=O)c(C(=O)O)cn6C5CC5)CC4)nn3)OC(OC3C(O)C(N)CC(N)C3OC3OC(CN)C(O)C(O)C3N)C2O)C(N)C(O)C1O (stereo not drawn) [Compound 1m] :: 0.75
5) NCC1OC(OC2C(C(=O)NCc3cn(CCCN4CCN(c5cc6c(cc5F)c(=O)c(C(=O)O)cn6C5CC5)CC4)nn3)OC(OC3C(O)C(N)CC(N)C3OC3OC(CN)C(O)C(O)C3N)C2O)C(N)C(O)C1O (stereo not drawn) [Compound 1k] :: 1.5
6) NCC1OC(OC2C(C(=O)NCc3cn(CCN4CCN(c5cc6c(cc5F)c(=O)c(C(=O)O)cn6C5CC5)CC4)nn3)OC(OC3C(O)C(N)CC(N)C3OC3OC(CN)C(O)C(O)C3N)C2O)C(N)C(O)C1O (stereo not drawn) [Compound 1j] :: 1.5
7) NCC1OC(OC2C(COCc3cn(CCN4CCN(c5cc6c(cc5F)c(=O)c(C(=O)O)cn6C5CC5)CC4)nn3)OC(OC3C(O)C(N)CC(N)C3OC3OC(CN)C(O)C(O)C3N)C2O)C(N)C(O)C1O (stereo not drawn) [Compound 1q] :: 0.38
8) NCC1OC(OC2C(C(=O)Nc3ccc(-c4cn(CCN5CCN(c6cc7c(cc6F)c(=O)c(C(=O)O)cn7C6CC6)CC5)nn4)cc3)OC(OC3C(O)C(N)CC(N)C3OC3OC(CN)C(O)C(O)C3N)C2O)C(N)C(O)C1O (stereo not drawn) [Compound 1a] :: 0.75
9) NCC1OC(OC2C(C(=O)Nc3ccc(-c4cn(CCCCCN5CCN(c6cc7c(cc6F)c(=O)c(C(=O)O)cn7C6CC6)CC5)nn4)cc3)OC(OC3C(O)C(N)CC(N)C3OC3OC(CN)C(O)C(O)C3N)C2O)C(N)C(O)C1O (stereo not drawn) [Compound 1d] :: 1.5
